Each recorded value in this set is attributed to patent US12441726B2.

Target: BRM (Homo sapiens, UniProt P51531)
Sequence (P51531 whole entry): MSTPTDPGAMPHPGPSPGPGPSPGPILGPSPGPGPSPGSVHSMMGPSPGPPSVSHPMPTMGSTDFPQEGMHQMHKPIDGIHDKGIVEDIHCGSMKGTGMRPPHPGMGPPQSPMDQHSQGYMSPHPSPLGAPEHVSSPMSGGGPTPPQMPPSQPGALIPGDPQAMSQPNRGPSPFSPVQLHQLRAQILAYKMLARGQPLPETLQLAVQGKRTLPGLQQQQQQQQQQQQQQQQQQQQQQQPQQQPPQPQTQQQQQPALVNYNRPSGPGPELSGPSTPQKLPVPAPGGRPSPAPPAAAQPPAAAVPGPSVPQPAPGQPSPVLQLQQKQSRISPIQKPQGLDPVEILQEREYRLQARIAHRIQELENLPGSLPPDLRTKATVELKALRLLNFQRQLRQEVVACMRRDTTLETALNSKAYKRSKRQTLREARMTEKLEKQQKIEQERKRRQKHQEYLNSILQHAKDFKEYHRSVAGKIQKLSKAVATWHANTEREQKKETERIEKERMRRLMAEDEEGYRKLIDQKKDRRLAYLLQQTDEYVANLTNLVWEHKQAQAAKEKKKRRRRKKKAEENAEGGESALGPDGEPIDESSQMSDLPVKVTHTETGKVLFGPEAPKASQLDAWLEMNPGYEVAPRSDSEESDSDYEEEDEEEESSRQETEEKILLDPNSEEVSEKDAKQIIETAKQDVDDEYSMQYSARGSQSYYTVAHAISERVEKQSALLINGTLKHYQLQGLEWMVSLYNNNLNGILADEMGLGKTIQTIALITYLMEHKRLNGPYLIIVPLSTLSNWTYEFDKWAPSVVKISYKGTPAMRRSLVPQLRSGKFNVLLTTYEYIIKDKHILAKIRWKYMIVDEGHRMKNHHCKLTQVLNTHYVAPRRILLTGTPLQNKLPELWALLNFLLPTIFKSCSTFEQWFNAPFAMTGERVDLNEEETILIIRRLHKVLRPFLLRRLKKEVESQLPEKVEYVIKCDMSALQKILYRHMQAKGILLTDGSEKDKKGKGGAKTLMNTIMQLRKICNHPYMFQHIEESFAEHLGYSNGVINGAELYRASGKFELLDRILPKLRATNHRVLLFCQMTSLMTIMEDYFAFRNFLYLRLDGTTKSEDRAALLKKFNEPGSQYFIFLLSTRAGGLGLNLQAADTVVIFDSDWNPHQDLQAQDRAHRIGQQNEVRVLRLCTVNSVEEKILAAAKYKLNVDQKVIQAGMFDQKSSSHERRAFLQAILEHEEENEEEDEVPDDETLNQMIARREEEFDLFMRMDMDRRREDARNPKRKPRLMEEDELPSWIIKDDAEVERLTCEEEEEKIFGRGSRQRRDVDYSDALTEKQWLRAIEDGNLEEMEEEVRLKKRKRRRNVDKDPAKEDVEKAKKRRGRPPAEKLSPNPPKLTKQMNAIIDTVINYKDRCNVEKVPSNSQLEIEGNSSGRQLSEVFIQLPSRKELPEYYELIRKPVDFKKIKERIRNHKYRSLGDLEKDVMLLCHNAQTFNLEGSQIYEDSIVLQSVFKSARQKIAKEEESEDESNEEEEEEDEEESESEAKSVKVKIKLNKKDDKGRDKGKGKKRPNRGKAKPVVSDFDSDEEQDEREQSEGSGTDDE
Test: ATPase catalytic activity assay (ADP-Glo), BRM
Conditions: BRM ATPase: IC50 (uM), 30 nM BRM, 400 μM ATP
# reported IC50; entries follow

compound=C[C@@]1(C#N)COCc2ccc(C(=O)NCc3cc(C4CN(c5ccccc5)C4)ccn3)cc21 reported="0.1 to 0.5 µM"

## Input Entry `C[C@@]1(F)COCc2ccc(C(=O)NCc3cc4nc(-c5cncc(C6CC6)n5)ccc4cn3)cc21` has what IC50?
## Output < 0.1 µM

## Input Value lookup for IC50; key = `Cc1cnc(CNC(=O)c2ccc3c(c2)[C@](C)(C#N)COC3)cc1C#Cc1ccccc1`
## Output 0.5 to 1 µM

## Input Query (compound): C[C@@]1(C#N)COCc2ccc(C(=O)NCc3cc4nc(-c5ccccc5)ccc4cn3)cc21 [Compound 85] ; field requested: IC50
## Output < 0.1 µM

* * *

Entries and their pIC50
Target: BRG-1 (Homo sapiens, UniProt P51532)
Sequence (P51532 whole entry): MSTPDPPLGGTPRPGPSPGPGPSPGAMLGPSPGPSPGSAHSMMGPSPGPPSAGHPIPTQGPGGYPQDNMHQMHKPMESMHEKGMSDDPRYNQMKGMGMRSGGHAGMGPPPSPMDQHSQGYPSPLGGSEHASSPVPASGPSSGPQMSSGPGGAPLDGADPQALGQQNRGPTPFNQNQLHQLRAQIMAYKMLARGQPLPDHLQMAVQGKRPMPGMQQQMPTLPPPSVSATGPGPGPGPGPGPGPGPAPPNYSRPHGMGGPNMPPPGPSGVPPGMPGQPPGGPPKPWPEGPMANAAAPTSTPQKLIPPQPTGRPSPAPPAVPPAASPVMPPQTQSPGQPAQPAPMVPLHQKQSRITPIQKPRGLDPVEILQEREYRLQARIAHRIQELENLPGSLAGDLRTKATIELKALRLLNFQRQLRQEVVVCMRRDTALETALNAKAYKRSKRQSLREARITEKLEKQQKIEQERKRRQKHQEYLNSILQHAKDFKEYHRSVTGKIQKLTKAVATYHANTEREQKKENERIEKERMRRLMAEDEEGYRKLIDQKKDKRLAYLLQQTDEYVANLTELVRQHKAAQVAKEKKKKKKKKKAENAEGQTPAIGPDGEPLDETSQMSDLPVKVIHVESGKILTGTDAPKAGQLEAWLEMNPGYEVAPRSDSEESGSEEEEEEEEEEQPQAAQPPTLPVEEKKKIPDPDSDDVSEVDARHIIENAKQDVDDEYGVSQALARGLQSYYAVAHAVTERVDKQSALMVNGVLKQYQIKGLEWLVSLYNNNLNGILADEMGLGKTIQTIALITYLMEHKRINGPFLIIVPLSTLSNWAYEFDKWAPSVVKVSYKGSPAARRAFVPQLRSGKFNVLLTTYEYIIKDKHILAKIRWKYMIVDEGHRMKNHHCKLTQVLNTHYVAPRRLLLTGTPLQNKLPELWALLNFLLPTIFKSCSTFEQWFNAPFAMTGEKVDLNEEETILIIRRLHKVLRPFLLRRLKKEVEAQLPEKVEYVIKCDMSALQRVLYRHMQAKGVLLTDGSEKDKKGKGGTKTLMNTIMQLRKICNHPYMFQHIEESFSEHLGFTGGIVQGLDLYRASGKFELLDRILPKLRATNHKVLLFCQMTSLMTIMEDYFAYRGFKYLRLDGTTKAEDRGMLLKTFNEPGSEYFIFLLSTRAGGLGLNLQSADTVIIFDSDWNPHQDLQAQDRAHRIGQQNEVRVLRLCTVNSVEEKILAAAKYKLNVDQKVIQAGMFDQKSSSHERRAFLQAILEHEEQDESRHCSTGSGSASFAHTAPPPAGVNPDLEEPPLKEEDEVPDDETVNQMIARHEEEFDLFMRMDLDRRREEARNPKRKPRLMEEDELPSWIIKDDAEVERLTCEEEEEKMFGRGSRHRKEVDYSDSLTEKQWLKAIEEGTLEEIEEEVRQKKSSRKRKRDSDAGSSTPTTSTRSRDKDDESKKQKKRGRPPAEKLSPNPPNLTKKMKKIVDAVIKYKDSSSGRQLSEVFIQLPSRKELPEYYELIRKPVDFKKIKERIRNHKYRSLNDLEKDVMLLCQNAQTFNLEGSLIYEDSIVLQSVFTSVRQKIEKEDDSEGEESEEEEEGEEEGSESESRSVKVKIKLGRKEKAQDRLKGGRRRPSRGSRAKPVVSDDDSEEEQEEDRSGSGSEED
Test: ATPase catalytic activity assay (ADP-Glo), BRG-1
pIC50: −log10 of the molar value.

Below are worked cases with known answers.
chemical_structure=C[C@@]1(C#N)COCc2ccc(C(=O)NCc3cc4cc(N5CCn6ncc(C(F)F)c6C5)ccc4nn3)cc21 reported="6.00 to 6.30"
chemical_structure=C[C@@]1(C#N)COCc2ccc(C(=O)NCc3cc4nc(-c5cncc(N6CCC6)n5)sc4cn3)cc21 reported="6.30 to 7.00"

Now consider the entry below.
## Input Look up pIC50 with BRG-1 (Homo sapiens, UniProt P51532) for this compound: `CC(C)(O)C#Cc1cccc(-c2ccc3cnc(CNC(=O)c4ccc5c(c4)[C@](C)(C#N)COC5)cc3n2)n1`
## Output 6.00 to 6.30

* * *

Molecular target: BRM (Homo sapiens, UniProt P51531)
Assay: ATPase catalytic activity assay (ADP-Glo), BRM
Details: BRM ATPase: IC50 (uM), 30 nM BRM, 400 μM ATP
A collection of molecules and their measured IC50

Examples with their reported IC50 follow.
chemical_structure=C[C@@]1(C#N)COCc2ccc(C(=O)NCc3cc4cc(-c5cccc(N6CCC6)n5)ccc4nn3)cc21 experimental_endpoint=IC50 reported="< 0.1 µM"
chemical_structure=CO[C@@H]1CCN(c2cncc(-c3ccc4cnc(CNC(=O)c5ccc6c(c5)[C@](C)(C#N)COC6)cc4c3)n2)C1 experimental_endpoint=IC50 reported="< 0.1 µM"
chemical_structure=C[C@@]1(C#N)COCc2ccc(C(=O)NCc3cc(N4CC(c5ccccc5)C4)ccn3)cc21 experimental_endpoint=IC50 reported="> 1 µM"

For the next question, use this molecule.
## Input Entry `C[C@@]1(C#N)COCc2ccc(C(=O)NCc3cc4nc(-c5cnn6ccccc56)ccc4cn3)cc21` , system BRM (Homo sapiens, UniProt P51531): what IC50 was measured?
## Output 0.1 to 0.5 µM

* * *

Target: BRG-1 (Homo sapiens)
Assay: ATPase catalytic activity assay (ADP-Glo), BRG-1
Settings: 1 h, read-out: BRG1 Max % Inhibition, ADP-Glo, 30 nM BRG-1, 400 μM ATP
Experimental endpoint: Emax (%)

chemical_structure=C[C@@]1(F)COCc2ccc(C(=O)NCc3cc4nc(-c5ccnc(N6CCN(C7COC7)CC6)n5)ccc4cn3)cc21 experimental_endpoint=Emax reported=94
chemical_structure=Cn1ccc2c(-c3ccc4cnc(CNC(=O)c5ccc6c(c5)[C@](C)(C#N)COC6)cc4n3)cccc21 experimental_endpoint=Emax reported=96
chemical_structure=COc1ncccc1-c1ccc2nnc(CNC(=O)c3ccc4c(c3)[C@](C)(C#N)COC4)cc2c1 experimental_endpoint=Emax reported=87
chemical_structure=C[C@@]1(F)COCc2ncc(C(=O)NCc3cc4nc(-c5ccnc(N6CCC6)n5)sc4cn3)cc21 experimental_endpoint=Emax reported=25
chemical_structure=C[C@@]1(C#N)COCc2ccc(C(=O)NCc3cc4cc(-c5ccnc(C6CC6)n5)cnc4cn3)cc21 experimental_endpoint=Emax reported=63

I. C[C@@]1(C#N)COCc2ccc(C(=O)NCc3cc4nc(-c5cncc(N6CC[C@@H](F)C6)n5)ccc4cn3)cc21
II. C[C@@]1(C#N)COCc2ccc(C(=O)NCc3cc4nc(-c5cnn(C6COC6)c5)ccc4cn3)cc21
III. Cn1ncc2c1CN(c1ccc3cnc(CNC(=O)c4ccc5c(c4)[C@](C)(C#N)COC5)cc3n1)CC2
## Input Hey, quick one: sort these by Emax, largest value first please. Provide your answer as the labels ordered per the instruction.
## Output I, III, II
(I: 97%, III: 61%, II: 36%)

P. COc1cc(F)ccc1-c1ccc2cnc(CNC(=O)c3ccc4c(c3)[C@](C)(C#N)COC4)cc2n1
Q. C[C@@]1(C#N)COCc2ccc(C(=O)NCc3cc4nc(-c5cnn(-c6cccnc6)c5)ccc4cn3)cc21
## Input Endpoint returns the identifier whose Emax is numerically larger, either P or Q . Reply with the label of the item you choose.
## Output P
(P: 95%, Q: 29%)
